- System Tested: UniProt:P09923
- Experiment Description: activation of human intestinal alkaline phosphatase – biochemical, dose response (AID 488873)
List of EC50 values.
Assay Endpoint: EC50 (µM)

>>> measurement("O=C(NN=CC1=CC(=O)C(=O)CC1)NN=CC1=CC(=O)C(=O)CC1")
66.2
>>> measurement("Cc1cc(=O)[nH]c(N=NCc2ccc(O)c(O)c2)n1")
66.2
>>> measurement("CN(CCO)c1ccc(CN=Nc2ccc([N+](=O)[O-])cc2S(=O)(=O)Nc2ccccc2C(=O)O)cc1")
26.6

###

- System Tested: Intestinal-type alkaline phosphatase (Homo sapiens, UniProt P09923)
- Sequence (P09923 whole entry): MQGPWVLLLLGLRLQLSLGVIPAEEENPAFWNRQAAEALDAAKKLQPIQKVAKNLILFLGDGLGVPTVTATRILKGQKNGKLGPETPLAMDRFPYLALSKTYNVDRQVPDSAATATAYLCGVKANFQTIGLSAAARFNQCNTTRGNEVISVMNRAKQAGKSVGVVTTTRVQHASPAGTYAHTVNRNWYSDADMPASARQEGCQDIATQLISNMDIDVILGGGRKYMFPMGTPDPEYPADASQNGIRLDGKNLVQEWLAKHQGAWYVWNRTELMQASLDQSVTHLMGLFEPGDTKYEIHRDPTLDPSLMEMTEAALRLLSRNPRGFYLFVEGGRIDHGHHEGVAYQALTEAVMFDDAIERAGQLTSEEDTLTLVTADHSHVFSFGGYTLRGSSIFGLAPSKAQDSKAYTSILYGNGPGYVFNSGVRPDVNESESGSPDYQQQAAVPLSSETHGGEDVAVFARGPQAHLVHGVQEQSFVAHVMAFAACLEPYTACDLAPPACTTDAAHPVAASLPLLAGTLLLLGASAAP
- Experiment Description: activation of human intestinal alkaline phosphatase – biochemical, dose response (AID 488873)
pEC50: −log10 of the molar value.
Assay Endpoint: pEC50

>>> measurement("Oc1ccc(CN=Nc2cc(N3CCCC3)nc(N3CCCC3)n2)cc1O")
"< 4.00"
>>> measurement("C#CCOCCOCCOCCNc1nc(N2CCN(C(=O)CCCCCCCCCCNC(=O)[C@@H](CCC(=O)O)n3cc(CCCCCN)nn3)CC2)nc(N2CCN(C(=O)CCCCCCCCCCNC(=O)[C@H]([C@@H](C)CC)n3cc(CCCCCN)nn3)CC2)n1 [KI-KE]")
"< 4.00"
>>> measurement("O=C1CC(=O)c2c(O)cc(O)c(O)c2C1=O [4,5,7,8-tetrahydroxy-1,2-naphthoquinone]")
"< 4.00"
